melting point overview

INSERT INTO measurements (structure_notation, assay_endpoint, experimental_result) VALUES
  ('CC1CCN(c2nc(N)nc(-c3cccc([N+](=O)[O-])c3)n2)CC1', 'melting point', '153 to 154 °C'),
  ('Nc1nc(-c2ccc(Cl)cc2)nc(N2CCCCC2)n1', 'melting point', '177 to 178 °C'),
  ('Nc1nc(-c2ccc(Cl)cc2)nc(N2CCc3ccccc3C2)n1', 'melting point', '183 to 184 °C'),
  ('Nc1nc(-c2ccc(OC(F)(F)F)cc2)nc(N2CCc3ccccc3C2)n1', 'melting point', '119 to 120 °C');

Give the measured melting point for `CC1CCN(c2nc(N)nc(-c3cccs3)n2)CC1` 155 to 156 °C

Give the measured melting point for `COc1cc(-c2nc(N)nc(N3CCc4ccccc4C3)n2)cc(OC)c1OC` 198 to 199 °C

Give the measured melting point for `Nc1nc(-c2ccc(OC(F)(F)F)cc2)nc(N2CCCCC2)n1` 136 to 137 °C

Give the measured melting point for `Nc1nc(-c2ccc(F)cc2)nc(N2CCc3ccccc32)n1` 195 to 196 °C

Give the measured melting point for `CN1CCN(c2nc(N)nc(-c3cccc([N+](=O)[O-])c3)n2)CC1` 226 to 227 °C

Give the measured melting point for `COc1ccc(-c2nc(N)nc(N3CCC(C)CC3)n2)cc1` 172 to 173 °C

Give the measured melting point for `Nc1nc(-c2cccc(F)c2)nc(N2CCCCC2)n1` 138 to 139 °C

Give the measured melting point for `CN1CCN(c2nc(N)nc(-c3ccc(C(F)(F)F)cc3)n2)CC1` 194 to 195 °C

Give the measured melting point for `CN(C)c1ccc(-c2nc(N)nc(N3CCc4ccccc43)n2)cc1` 226 to 227 °C

Give the measured melting point for `Nc1nc(-c2ccc(C(F)(F)F)cc2)nc(N2CCc3ccccc3C2)n1` 181 to 182 °C

====

melting point overview

Sample records with melting point:
INSERT INTO results (structure_notation, assay_endpoint, experimental_result) VALUES
  ('Nc1nc(-c2ccc(C(F)(F)F)cc2)nc(N2CCCC2)n1', 'melting point', '186 to 187 °C'),
  ('CN1CCN(c2nc(N)nc(-c3ccc(F)cc3)n2)CC1', 'melting point', '192 to 193 °C'),
  ('COc1ccc(-c2nc(N)nc(N3CCc4ccccc4C3)n2)cc1', 'melting point', '165 to 166 °C'),
  ('COc1ccc(-c2nc(N)nc(N3CCCC3)n2)cc1', 'melting point', '208 to 209 °C');

Turning now to a further compound:
Give the measured melting point for `Cc1cccc(-c2nc(N)nc(N3CCN(C)CC3)n2)c1` 194 to 195 °C

====

melting point overview

Sample records with melting point:
INSERT INTO assay_data (structure_notation, assay_endpoint, experimental_result) VALUES
  ('Nc1nc(-c2cccs2)nc(N2CCc3ccccc32)n1', 'melting point', '163 to 164 °C'),
  ('CN1CCN(c2nc(N)nc(-c3ccc(N(C)C)cc3)n2)CC1', 'melting point', '244 to 245 °C'),
  ('Nc1nc(-c2ccc(OC(F)(F)F)cc2)nc(N2CCCC2)n1', 'melting point', '149 to 150 °C'),
  ('CC(C)(C)c1ccc(-c2nc(N)nc(N3CCc4ccccc4C3)n2)cc1', 'melting point', '162 to 164 °C'),
  ('CN1CCN(c2nc(N)nc(-c3ccc(OC(F)(F)F)cc3)n2)CC1', 'melting point', '194 to 195 °C'),
  ('COc1cc(-c2nc(N)nc(N3CCN(C)CC3)n2)cc(OC)c1OC', 'melting point', '234 to 235 °C'),
  ('Nc1nc(-c2ccc(F)cc2)nc(N2CCCC2)n1', 'melting point', '202 to 203 °C'),
  ('COc1ccc(-c2nc(N)nc(N3CCc4ccccc43)n2)cc1OC', 'melting point', '183 to 184 °C'),
  ('CC1CCN(c2nc(N)nc(-c3ccc(N(C)C)cc3)n2)CC1', 'melting point', '212 to 213 °C');

Turning now to a further compound:
Give the measured melting point for `Nc1nc(-c2cccc(F)c2)nc(N2CCCC2)n1` 182 to 183 °C
